# tested.on: T1, cynomolgus monkey transferrin receptor 1 (cTfR1) (cynomolgus monkey, UniProt H9EXL1 89-760 (rhesus entry))
# T1 construct: The ELISA against cTfR1 is not described in the text
# assay.details: competition ELISA, Fab
Record form. Attribute: Kd. Fill in for each entry.
Give the value, in units of nM, as a plain number.

Prompt line: Dear colleague, please send me the reported Kd for Fab0061 (Fab, V domains shown) VH: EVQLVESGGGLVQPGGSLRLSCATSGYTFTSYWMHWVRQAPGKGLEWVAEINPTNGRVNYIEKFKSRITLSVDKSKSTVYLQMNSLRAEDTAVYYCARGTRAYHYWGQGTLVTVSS VL: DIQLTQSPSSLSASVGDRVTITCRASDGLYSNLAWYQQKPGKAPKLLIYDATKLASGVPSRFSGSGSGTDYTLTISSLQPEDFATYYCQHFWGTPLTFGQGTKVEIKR when you can.
Response line: 5.15

Prompt line: Dear colleague, please send me the reported Kd for Fab0062 (Fab, V domains shown) VH: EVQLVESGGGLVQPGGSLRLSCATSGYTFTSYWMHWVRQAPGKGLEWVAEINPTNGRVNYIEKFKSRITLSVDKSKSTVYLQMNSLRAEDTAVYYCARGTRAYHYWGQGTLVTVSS VL: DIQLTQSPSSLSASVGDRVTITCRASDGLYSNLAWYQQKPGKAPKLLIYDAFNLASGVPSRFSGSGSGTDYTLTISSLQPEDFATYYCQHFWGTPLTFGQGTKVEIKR when you can.
Response line: 9.14

Prompt line: Dear colleague, please send me the reported Kd for Fab0063 (Fab, V domains shown) VH: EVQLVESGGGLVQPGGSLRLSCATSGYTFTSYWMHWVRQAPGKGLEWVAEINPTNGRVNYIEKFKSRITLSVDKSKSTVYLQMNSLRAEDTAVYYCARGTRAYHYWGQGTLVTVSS VL: DIQLTQSPSSLSASVGDRVTITCRASDGLYSNLAWYQQKPGKAPKLLIYDATRLASGVPSRFSGSGSGTDYTLTISSLQPEDFATYYCQHFWGTPLTFGQGTKVEIKR when you can.
Response line: 5.57

Prompt line: Dear colleague, please send me the reported Kd for Fab0060 (Fab, V domains shown) VH: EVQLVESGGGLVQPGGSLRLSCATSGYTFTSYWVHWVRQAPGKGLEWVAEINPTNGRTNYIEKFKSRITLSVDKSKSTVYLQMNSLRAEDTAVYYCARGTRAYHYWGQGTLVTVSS VL: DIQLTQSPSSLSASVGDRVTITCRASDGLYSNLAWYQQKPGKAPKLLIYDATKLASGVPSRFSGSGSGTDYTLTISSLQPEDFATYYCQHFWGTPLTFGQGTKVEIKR when you can.
Response line: 4.58

Prompt line: Dear colleague, please send me the reported Kd for Fab0065 (Fab, V domains shown) VH: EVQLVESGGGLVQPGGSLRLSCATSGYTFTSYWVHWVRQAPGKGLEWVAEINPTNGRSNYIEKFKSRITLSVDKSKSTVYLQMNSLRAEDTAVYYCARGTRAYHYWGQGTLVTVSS VL: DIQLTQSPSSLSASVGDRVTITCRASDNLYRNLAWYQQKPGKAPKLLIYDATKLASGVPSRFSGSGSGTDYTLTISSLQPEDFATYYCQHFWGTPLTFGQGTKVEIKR when you can.
Response line: 2.87
